Target: IL-1β (UniProt P01584 117-269)
Test: Biacore, Fab periplasmic extract on IL-1β
We begin with a simple list: items and their reported fold difference in affinity vs original.

{"binder": "XPA23 light chain S53P (Fab, V domains shown, Single light chain substitution; Fab in periplasmic extract; also called C5A (XPA23) S53P) VH: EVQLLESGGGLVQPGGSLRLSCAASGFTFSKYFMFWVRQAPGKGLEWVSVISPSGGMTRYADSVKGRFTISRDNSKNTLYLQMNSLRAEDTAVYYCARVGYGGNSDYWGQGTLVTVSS VL: DIQMTQSPSSVSASVGDRLTIICRASQDINRWLAWYQQTPGNAPKLLIHSATPLQSGVPSRFSGSGSGTDFTLTINSLQPEDFATYYCQQADSFPLTFGGGTKVEIK", "fold difference in affinity vs original [fold]": 4.92}
{"binder": "XPA23 light chain S53A (Fab, V domains shown, Single light chain substitution; Fab in periplasmic extract; also called C5A (XPA23) S53A) VH: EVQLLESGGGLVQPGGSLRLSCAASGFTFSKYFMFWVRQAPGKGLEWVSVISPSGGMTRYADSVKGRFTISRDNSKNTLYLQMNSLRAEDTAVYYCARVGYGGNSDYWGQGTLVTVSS VL: DIQMTQSPSSVSASVGDRLTIICRASQDINRWLAWYQQTPGNAPKLLIHSATALQSGVPSRFSGSGSGTDFTLTINSLQPEDFATYYCQQADSFPLTFGGGTKVEIK", "fold difference in affinity vs original [fold]": 1.07}
